pKi values for the compounds below.
Biological target: Aromatase (Homo sapiens, UniProt P11511)
Sequence (P11511 whole entry): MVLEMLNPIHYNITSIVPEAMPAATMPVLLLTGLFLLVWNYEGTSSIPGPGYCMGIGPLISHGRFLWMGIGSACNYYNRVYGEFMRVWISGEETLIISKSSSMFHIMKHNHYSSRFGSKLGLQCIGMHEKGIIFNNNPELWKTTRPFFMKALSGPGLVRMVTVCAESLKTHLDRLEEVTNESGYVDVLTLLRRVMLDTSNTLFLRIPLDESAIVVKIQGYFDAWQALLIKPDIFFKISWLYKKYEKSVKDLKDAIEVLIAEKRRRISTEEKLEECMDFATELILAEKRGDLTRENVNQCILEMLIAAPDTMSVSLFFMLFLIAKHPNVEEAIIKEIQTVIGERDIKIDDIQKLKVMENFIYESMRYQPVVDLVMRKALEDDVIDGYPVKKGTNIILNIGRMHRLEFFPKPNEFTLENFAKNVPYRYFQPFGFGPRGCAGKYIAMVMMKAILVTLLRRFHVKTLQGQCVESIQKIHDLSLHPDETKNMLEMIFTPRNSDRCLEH
// pKi: -log10(molar conc.)

Consider the reported pKi for these compounds:
substance.smiles: C[C@]12CC[C@@H]3c4ccc(O)cc4[C@@H](Cc4ccccc4)C[C@H]3[C@@H]1CC[C@@H]2O
pKi: 7.00

substance.smiles: C[C@]12CCC(=O)C=C1[C@H](CCCCc1ccccc1)C[C@@H]1[C@@H]2CC[C@]2(C)C(=O)CC[C@@H]12
pKi: 7.80

substance.smiles: CCCCCC1=C[C@@H]2[C@H](CC[C@]3(C)C(=O)CC[C@@H]23)[C@@]2(C)C=CC(=O)C=C12
pKi: 8.60

substance.smiles: C[C@]12CCC(=O)C=C1[C@@H](CCc1ccccc1)C[C@@H]1[C@@H]2CC[C@]2(C)C(=O)CC[C@@H]12
pKi: 7.80

// next item, pKi requested
GET /value?item= C[C@]12CC[C@H]3[C@@H](CC[C@]45O[C@H]4C(=O)CC[C@]35CO)[C@@H]1CCC2=O &field=pKi returns 5.30
